Tested on: ZIKV Puerto Rico strain (PRVABC59)
Assay: ZIKV CPE MTS assay in human neuroblastoma (U251) cells
Assay type: cell-based, Zika virus
Details: Zika virus, U-251, read-out: ZIKV CPE MTS Assay percentage of inhibition at the concentration, H251
assayEndpoint: inhibition at 20 µM
Remember to quote the unit after the number.

Record excerpt, results attached:
| compound | measuredResult |
| --- | --- |
| CC(C)OC(=O)[C@H](C)NP(=O)(OC[C@H]1O[C@@H](n2ccc(NO)nc2=O)C(C)(O)C1O)Oc1ccccc1 (stereo partly shown) | 3% |
| CCOC(=O)[C@H](C)NP(=O)(OCC1O[C@@H](n2cnc3c(NOC)nc(N)nc32)[C@](C)(O)[C@@H]1O)Oc1ccccc1 (stereo partly shown) | 43% |
| CC(C)OC(=O)[C@H](C)NP(=O)(OCC1O[C@@H](n2cnc3c(N)nc(N)nc32)[C@](C)(O)[C@@H]1O)Oc1ccccc1 (stereo partly shown) | 25% |

Now examine the next entry.
Find the measured inhibition at 20 µM of CCOC(=O)[C@H](C)NP(=O)(OC[C@H]1O[C@@H](n2cnc3c(N)nc(N=[N+]=[N-])nc32)C(C)(O)C1O)Oc1ccccc1 (stereo partly shown) and report it. 34%
